Reported pIC50 by item:
Molecular target: T1, human TIGIT on cells (human, UniProt Q495A1 22-141)
T1 construct: also called Expi293 human TIGIT over-expressing cells
T1 sequence: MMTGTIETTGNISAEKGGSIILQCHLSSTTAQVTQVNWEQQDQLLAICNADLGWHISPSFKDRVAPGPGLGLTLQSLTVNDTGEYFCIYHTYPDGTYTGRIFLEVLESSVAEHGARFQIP
Test: FACS blocking of human PVR-m2aFc binding to human TIGIT OE Expi293 cells; binding site concentration; n=2
pIC50: −log10 of the molar value.

| binder | pIC50 |
| --- | --- |
| CPA.9.086.H4(S241P) (antibody, human IgG4 S228P, lambda, V domains shown) VH: EVQLVETGGGLIQPGRSLRLSCAASGFTFSSYAMHWVRQAPGKGLEWVAVISYAGEVKYYADSVKGRFTISRDNSKNTLYLQMNSLRAEDTAVYYCARDPLPLHYYGMDVWGQGTTVTVSS VL: QSALTQPRSASGNPGQRVTISCSGSSSNMGRRPVNWYQQIPGTAPKLLIYSQNQRPSGVPDRFSGSQSGTSASLTISGLQSEDEAEYFCAVWDDIGRVLQLGGGTQLAVLG | 9.74 |
| CPA.9.083.H4(S241P) (antibody, human IgG4, V domains shown) VH: EVQLVETGGGLIQPGRSLRLSCAASGFTFSSYAMHWVRQAPGKGLEWVAVISYDGTPVYYADSVKGRFTISRDNSKNTLYLQMNSLRAEDTAVYYCARDPLPLHYYGMDVWGQGTTVTVSS VL: QSALTQPRSASGNPGQRVTISCSGSSSNMGRRPVNWYQQIPGTAPKLLIYSQNQRPSGVPDRFSGSQSGTSASLTISGLQSEDEAEYFCAVWDGDRRSLQLGGGTQLAVLG | 9.66 |
| BM26 hIgG4 (antibody, V domains shown, benchmark anti-human TIGIT antibody, human IgG4 with S241P; also called BM26-H4; WO2016/028656A1 Clone 3106 as hIgG4) VH: EVQLQQSGPELVKPGSSVKMSCKASGYTFSSYVMHWVKQKPGQGLEWIGYIDPYNDGAKYNEKFKGKATLTSDKSSSTAYMELSSLTSEDSAVYYCARGGPYGWYFDVWGAGTTVTVSS VL: DIQMTQSPASLSASVGETVTITCRASEHIYSYLSWYQQKQGKSPQLLVYNAKTLAEGVPSRFSGSGSGTQFSLKINSLQPEDFGTYYCQHHFGSPLTFGAGTTLELKR | 9.59 |
